Test system: COLO 205 colon
Assay info: NCI-60 one-dose screen, 48 h
Test parameters: 10 µM unless noted
The panel holds about 83,000 compounds, 20% with a hit somewhere; the sample as a whole holds those more often. Activity calls are given as the source filed them. The calls were made as follows: active = growth percent below 10; inactive = the rest.
Labels: active, inactive

molecule=CC(C)(CCc1ccccn1)C(=O)CCCc1ccccn1 class_assignment=inactive
molecule=O=C(CC(=O)C(F)(F)C(F)(F)C(F)(F)F)c1cc2ccccc2o1 class_assignment=inactive
molecule=COc1ccc(-c2cc(-c3cn(-c4cccc(Cl)c4)nc3-c3ccc(OC)cc3)[nH]c(=S)n2)cc1 class_assignment=inactive
molecule=Cc1ccc(Nc2cc(Cl)c([N+](=O)[O-])cc2[N+](=O)[O-])cc1 class_assignment=active
molecule=O=S(=O)(Nc1ccc2ccccc2c1)N1CCCCC1 class_assignment=inactive
molecule=CCC(=O)NC1=C(Cl)C(=O)C(NC(=O)CC)=C(Cl)C1=O class_assignment=active
molecule=COC(=O)[C@@H](Cc1c[nH]c2ccccc12)NC(=O)/C=C/c1ccccc1 class_assignment=inactive
molecule=Cn1cnc([N+](=O)[O-])c1S(=O)(=O)Oc1ccccc1 class_assignment=active
molecule=Clc1cc2nc(-c3ccccc3)c(-c3ccccc3)nc2cc1Cl class_assignment=inactive
molecule=Nc1c(Br)cc2c(c1Br)Cc1cc(Cl)ccc1-2 class_assignment=inactive
molecule=CCc1onc(-c2ccc(OC)cc2)c1-c1ccccc1OCCN(CC)CC class_assignment=inactive
molecule=CCOC(OCC)c1cnc2nc(NC(C)=O)[nH]c(=O)c2n1 class_assignment=inactive
molecule=CN(C)c1ccc(C2(Cl)c3ccccc3N(C)c3ccccc32)cc1 class_assignment=inactive
molecule=COc1cc([N+](=O)[O-])cc(OC)c1OC class_assignment=inactive
molecule="CC(C)(C)c1nn(-c2ccccc2)c2c1C(=O)CSC(c1ccc3c(c1)OCO3)N2 (stereo unspecified)" class_assignment=inactive
molecule=O=C1SCN(Cc2ccccc2)CN1Cc1ccccc1 class_assignment=inactive
molecule=O=C1/C(=C/c2ccccc2)SC(=Nc2ccccc2)N1Nc1ccccc1 class_assignment=active
molecule="CCCCCCCCOC(=O)C(C)OC(=O)OCCOCCOC(=O)OC(C)C(=O)OCCCCCCCC (stereo unspecified)" class_assignment=inactive
molecule=Oc1ccc(-c2nnc3c4[nH]ccc4ncn23)cc1 class_assignment=inactive
molecule=CCCCCCCCCCCCCCCC1=NCCN1 class_assignment=active
molecule=CCOC(=O)C#Cc1c(C(=O)OCC)nnn1[C@@H]1O[C@H](COC(C)=O)[C@@H](OC(C)=O)[C@H]1OC(C)=O class_assignment=inactive
molecule=C=C(C)[C@@H]1CC[C@]2(C(=O)NC(COC(=O)C(Cl)Cl)(COC(=O)C(Cl)Cl)COC(=O)C(Cl)Cl)CC[C@]3(C)[C@H](CC[C@@H]4[C@@]5(C)CC[C@H](OC(C)=O)C(C)(C)[C@@H]5CC[C@]43C)[C@@H]12 class_assignment=inactive
molecule="CCN1C(=O)/C(=C/N2N=C(c3ccc(Cl)cc3)CC2c2ccc(OC)cc2)SC1=S (stereo unspecified)" class_assignment=inactive
molecule=CCCCCCCCCCCCCCCC1=NC(C)(C)CN1C(C)C class_assignment=active
molecule=O=C(N/N=C/c1ccccc1O)c1ccncc1 class_assignment=inactive
molecule=CC(C)(C)OC(=O)N1CCCN(CCNc2nccc(-c3c(-c4cccc(O)c4)nc4sccn34)n2)S1(=O)=O class_assignment=inactive
molecule=NC(N)=N/N=C/c1cccc(Cl)c1Cl class_assignment=active
molecule=CC(C)(C)OC[C@@H]1N=C(c2ccc(Br)cc2)Nc2nc3ccccn3c2C1=O class_assignment=inactive
molecule=CC(=O)Oc1ccccc1C(=O)Nc1ncc([N+](=O)[O-])s1 class_assignment=inactive
molecule=CCN1CCN(Cc2ccc(NC(=O)Nc3ccc(-n4ccc5c(NC(=O)c6ccccc6)nccc54)cc3)cc2C(F)(F)F)CC1 class_assignment=active
molecule="Oc1c(C(Nc2cccc3ccccc23)c2ccccc2)ccc2cccnc12 (stereo unspecified)" class_assignment=inactive

* * *

Overview of recorded growth for various molecules
Tested on: NCI/ADR-RES ovarian
Assay info: NCI-60 one-dose screen, 48 h (100 = growth as untreated, 0 = no growth, -100 = all killed)
Test parameters: 10 µM unless noted
The panel holds about 83,000 compounds, 20% with a hit somewhere; the sample as a whole holds those more often.
Observable: growth (%)

molecule="CNC1=C([N+](=O)[O-])C(c2ccccc2O)C(C#N)=C(c2cccs2)O1 (stereo not drawn)" observable=growth test_value=102
molecule=CCN(CC)c1ccc(/C=N/N=C(N)N)cc1 observable=growth test_value=93
molecule="COc1cc(C2CC(c3cccc(Nc4ccnc5cc(Cl)ccc45)c3)=NN2C=O)cc(OC)c1OC (stereo not drawn)" observable=growth test_value=5.17

* * *

Tested on: SF-268 CNS
Assay info: NCI-60 one-dose screen, 48 h (100 = growth as untreated, 0 = no growth, -100 = all killed)
Test parameters: 10 µM unless noted
Compounds without any hit were thinned out: in the full panel of roughly 83,000, 20% have a hit.
Observable: growth (%)

smiles_entry=COc1ccc(-c2cc(-c3cn(-c4cccc(Cl)c4)nc3-c3ccc(OC)cc3)[nH]c(=S)n2)cc1 observable=growth test_value=70.6
smiles_entry=CCCCCCCCCCCCCCCC1=NCCN1 observable=growth test_value=71.3
smiles_entry=C=C[C@H]1CCC/C=C/[C@@H]2C[C@H](O)C[C@H]2[C@H](O)/C=C/C(=O)O1 observable=growth test_value=7.6
smiles_entry=O=C(CCl)Nc1cc(O)c2c(c1)C(=O)c1cccc(O)c1C2=O observable=growth test_value=-49.5
smiles_entry=O=C1OC(/C=C/c2ccccc2)=NC/1=C/c1ccccc1[N+](=O)[O-] observable=growth test_value=99.7
smiles_entry=O=C(Nc1ccc(-n2ccc3c(NC(=O)c4ccccc4)nccc32)cc1)c1ccc(N2CCOCC2)c(C(F)(F)F)c1 observable=growth test_value=37

* * *

Overview of recorded growth for various compounds
System: SF-539 CNS
Assay info: NCI-60 one-dose screen, 48 h (100 = growth as untreated, 0 = no growth, -100 = all killed)
Test parameters: 10 µM unless noted
The panel holds about 83,000 compounds, 20% with a hit somewhere; the sample as a whole holds those more often.
Observable: growth (%)

compound=CN(C)CCNC(=O)n1cc(-c2ccncc2)c(-c2cc(O)cc(Cl)c2)n1 test_value=82.5
compound=COCc1nc(NS(=O)(=O)c2ccc(N)cc2)nc(C)c1Br test_value=100
compound=Clc1cc(Cl)cc(-c2cnc3nonc3n2)c1 test_value=107
compound=COc1ccc(/C=C/C(=O)CCC(=O)O)cc1OC test_value=101
compound=ClCCn1cnc2c(SCc3ccccc3Cl)ncnc21 test_value=30.9
compound="COc1cc(C2CC(c3ccccc3)=NN2C=O)ccc1Oc1ccnc2cc(Cl)ccc12 (stereo not given)" test_value=79.8
compound=C=CCN(CC#N)CC=C test_value=102
compound=CCN(CC)c1ccc(/C=N/NC(=O)C[N+](C)(C)C)cc1 test_value=110
compound=CC(=O)c1ccc(N2C(=O)c3ccc(Oc4ccccc4)cc3C2=O)cc1 test_value=107
compound=O=C(/C=C/c1ccc(F)cc1)N1CCN(C(=O)/C=C/c2ccc(C(F)(F)F)cc2)CC1 test_value=123

* * *

Tested on: NCI-H322M lung
Assay info: NCI-60 one-dose screen, 48 h (100 = growth as untreated, 0 = no growth, -100 = all killed)
Test parameters: 10 µM unless noted
The panel holds about 83,000 compounds, 20% with a hit somewhere; the sample as a whole holds those more often.
Overview of recorded growth for various compounds
Observable: growth (%)

compound="CC1CCCN(CCCCOc2ccc(-c3ccc(C#N)cc3)cc2)C1 (configuration not stated)" observable=growth test_value=99.9
compound="CCSCC1CC(O)(c2ccccc2)C(c2ccccc2)C(c2ccc(F)cc2)O1 (configuration not stated)" observable=growth test_value=3.59
compound=CC(C)CCSc1nc(-c2ccc(F)cc2)c(C#N)c(N2CCN(C)CC2)n1 observable=growth test_value=87.8
compound="CCN(C(=O)CCl)C(C)(C)C(SSSC(c1ccc(Cl)cc1)C(C)(C)N(CC)C(=O)CCl)c1ccc(Cl)cc1 (configuration not stated)" observable=growth test_value=87.7
compound="CCN1C(=O)C(C)C=C(C)C=C1C (configuration not stated)" observable=growth test_value=108
compound=CC(=O)Nc1ccc(/C=N/N2CCCCCC2)cc1 observable=growth test_value=101
compound=CN1C(=O)C(C(=O)/C=C/c2ccccc2C(=O)O)C(=O)N(C)C1=O observable=growth test_value=99.1

* * *

Tested on: HCT-116 colon
Assay info: NCI-60 one-dose screen, 48 h (100 = growth as untreated, 0 = no growth, -100 = all killed)
Test parameters: 10 µM unless noted
Method: Growth inhibition of the HCT-116 human tumor cell line is measured as a screen for anti-cancer activity. Cells are grown in 96 well plates and exposed to the test compound for 48 hours. Compounds are tested at a single concentration, which is 10^-5 M for most compounds. The reported endpoint is percent growth (GI% or GIPRCNT), where numbers from 0 - 100% represent growth inhibition, and numbers from -100% - 0 represent cell death. For example, a value of 40 represents 60% growth inhibition. […]
About 83,000 compounds went through this panel and 20% of them were active in at least one assay; those are over-represented in the sample as a whole.
Observable: growth (%)

molecule="C=CCOC(=O)C1=C(C)NC2=C(C(=O)CCC2)C1c1ccc(F)cc1 (stereo not drawn)" observable=growth test_value=92.3
molecule=Cc1cc(C#Cc2ccc(C(C)(C)C)cc2)ccc1-n1c(/C=C/c2c(Cl)cccc2Cl)nc2ccccc2c1=O observable=growth test_value=89.2
molecule=CCCCOc1nc2ccc(C)cc2cc1/C=C/C(=O)/C=C(O)/C=C/c1cc2cc(C)ccc2nc1OCCCC observable=growth test_value=87.6
